# pKi per entry
# tested target: UniProt P30405
# Sequence (P30405 30-207): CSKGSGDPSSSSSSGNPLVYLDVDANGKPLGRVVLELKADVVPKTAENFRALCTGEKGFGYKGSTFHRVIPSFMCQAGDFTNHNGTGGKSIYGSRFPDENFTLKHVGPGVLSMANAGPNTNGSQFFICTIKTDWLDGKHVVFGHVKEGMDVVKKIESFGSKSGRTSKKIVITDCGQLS
# run description: Protease-free PPIase assay, cyclophilin D
# Format: biochemical
pKi: −log10 of the molar value. Numbered stars: 1 amine (or outer) side, 2 acyl side, 3 side chain; on linkers, the order of the positions; unused ones are H or OH. Square brackets hold non-standard residues; d marks the D form. Peptide text beside a SMILES is read from it. X3 = C[C@H](CCN1CC2CCC(C1)O2)[C@@H](O)[C@H](C(=O)[*:2])N(C)[*:1]; X4 = C[C@H](C/C=C/c1ncccn1)[C@@H](O)[C@H](C(=O)[*:2])N(C)[*:1]; X15 = C[C@H](CCN1CCCCC1CO)[C@@H](O)[C@H](C(=O)[*:2])N(C)[*:1]; X18 = C[C@H](CCNCc1ccccc1)[C@@H](O)[C@H](C(=O)[*:2])N(C)[*:1]; X16 = C[C@H](CCN1CCOCC1)[C@@H](O)[C@H](C(=O)[*:2])N(C)[*:1]; d(aThr) = C[C@@H](O)[C@@H](N)C(=O)O; NMeL = CN[C@@H](CC(C)C)C(=O)O; dNMeL = CN[C@H](CC(C)C)C(=O)O; dNMeV = CN[C@@H](C(=O)O)C(C)C; Hiv = CC(C)[C@H](O)C(=O)O; dAbu = CC[C@@H](N)C(=O)O; Sar = CNCC(=O)O

In the examples that follow, each entry is paired with its recorded pKi.
[[record]]
compound = "CC(C)C[C@@H]1C(=O)N[C@H](CC(C)C)C(=O)N(C)[C@H](C(C)C)C(=O)N(C)[C@H]([C@H](O)[C@H](C)CCN2CC3CCC(C2)O3)C(=O)N[C@H]([C@@H](C)O)C(=O)N(C)CC(=O)N(C)[C@@H](CC(C)C)C(=O)N[C@H](CC(C)C)C(=O)N(C)[C@H](CC(C)C)C(=O)N[C@H](C)C(=O)O[C@@H](C(C)C)C(=O)N1C [Example 22] (cyclo([Hiv][dNMeL][dL][dNMeV][X3][d(aThr)][Sar][NMeL][dL][dNMeL][dA]))"
tested_target = "UniProt P30405"
observation_type = "pKi"
result = "7.60 to 9.00"

[[record]]
compound = "CC(C)C[C@@H]1C(=O)N[C@H](CC(C)C)C(=O)N(C)[C@H](C(C)C)C(=O)N(C)[C@H]([C@H](O)[C@H](C)CCN2CCCCC2CO)C(=O)N[C@H]([C@@H](C)O)C(=O)N(C)CC(=O)N(C)[C@@H](CC(C)C)C(=O)N[C@H](CC(C)C)C(=O)N(C)[C@H](CC(C)C)C(=O)N[C@H](C)C(=O)O[C@@H](C(C)C)C(=O)N1C (stereo partly drawn) [Example 39] (cyclo([Hiv][dNMeL][dL][dNMeV][X15][d(aThr)][Sar][NMeL][dL][dNMeL][dA]))"
tested_target = "UniProt P30405"
observation_type = "pKi"
result = "7.00 to 7.60"

[[record]]
compound = "CC[C@H]1NC(=O)[C@@H]([C@H](O)[C@H](C)CCN2CCOCC2)N(C)C(=O)[C@@H](C(C)C)N(C)C(=O)[C@@H](CC(C)C)NC(=O)[C@@H](CC(C)C)N(C)C(=O)[C@H](C(C)C)OC(=O)[C@@H](C)NC(=O)[C@@H](CC(C)C)N(C)C(=O)[C@@H](CC(C)C)NC(=O)[C@H](CC(C)C)N(C)C(=O)CN(C)C1=O [Example 13] (cyclo([Hiv][dNMeL][dL][dNMeV][X16][dAbu][Sar][NMeL][dL][dNMeL][dA]))"
tested_target = "UniProt P30405"
observation_type = "pKi"
result = "7.60 to 9.00"

[[record]]
compound = "CC(C)C[C@@H]1C(=O)N[C@H](CC(C)C)C(=O)N(C)[C@H](C(C)C)C(=O)N(C)[C@H]([C@H](O)[C@H](C)CCNCc2ccccc2)C(=O)N[C@H]([C@@H](C)O)C(=O)N(C)CC(=O)N(C)[C@@H](CC(C)C)C(=O)N[C@H](CC(C)C)C(=O)N(C)[C@H](CC(C)C)C(=O)N[C@H](C)C(=O)O[C@@H](C(C)C)C(=O)N1C [Example 35] (cyclo([Hiv][dNMeL][dL][dNMeV][X18][d(aThr)][Sar][NMeL][dL][dNMeL][dA]))"
tested_target = "UniProt P30405"
observation_type = "pKi"
result = "7.60 to 9.00"


Kindly consider the entry below.
Query: Return pKi for the following compound: CC(C)C[C@@H]1C(=O)N[C@H](CC(C)C)C(=O)N(C)[C@H](C(C)C)C(=O)N(C)[C@H]([C@H](O)[C@H](C)C/C=C/c2ncccn2)C(=O)N[C@H]([C@@H](C)O)C(=O)N(C)CC(=O)N(C)[C@@H](CC(C)C)C(=O)N[C@H](CC(C)C)C(=O)N(C)[C@H](CC(C)C)C(=O)N[C@H](C)C(=O)O[C@@H](C(C)C)C(=O)N1C [Example 15] (cyclo([Hiv][dNMeL][dL][dNMeV][X4][d(aThr)][Sar][NMeL][dL][dNMeL][dA]))
Reply: 7.60 to 9.00
